Experiment: Cytotoxicity assay in MT-4 cells
Type: cell-based, human
Details: human, uninfected MT-4 cells, 5 days incubation; read-out: CC50
measured-metric: CC50 at 5 days

The cases that follow already have their CC50 at 5 days on record.
{"entry-smiles": "CO[C@@H]1CCN2C[C@H](C1)n1cc(C(=O)NCc3c(F)cc(F)cc3F)c(=O)c(O)c1C2=O", "reported-value": "> 50 µM"}
{"entry-smiles": "O=C(NCc1c(F)cc(F)cc1F)c1cn2c(c(O)c1=O)C(=O)N1CC[C@@H](O)CC[C@H]2C1", "reported-value": "> 50 µM"}
{"entry-smiles": "CO[C@H]1CCN2C[C@H](C1)n1cc(C(=O)NCc3c(F)cc(F)cc3F)c(=O)c(O)c1C2=O", "reported-value": "> 50 µM"}
{"entry-smiles": "O=C(NCc1ccc(F)c(Cl)c1F)c1cn2c(c(O)c1=O)C(=O)N1Cc3cc(F)c(F)cc3C[C@H]2C1", "reported-value": "> 50 µM"}
{"entry-smiles": "O=C(NCc1ccc(F)cc1F)c1cn2c(c(O)c1=O)C(=O)N1CCCOC[C@@H]2C1", "reported-value": "> 50 µM"}
{"entry-smiles": "Cn1cc2c(n1)C[C@H]1CN(C2)C(=O)c2c(O)c(=O)c(C(=O)NCc3c(F)cc(F)cc3F)cn21", "reported-value": "> 50 µM"}

Now look at this entry.
Q) Supply reported CC50 at 5 days belonging to this molecule: O=C(NCc1ccc(F)cc1F)c1cn2c(c(O)c1=O)C(=O)N1C[C@@H]2COc2cc(F)c(F)cc21
A) > 50 µM

---

Test: Cytotoxicity assay in MT-4 cells
Type: cell-based, human
Conditions: human, uninfected MT-4 cells, 5 days incubation; read-out: CC50
Overview of reported CC50 at 5 days across a group of compounds:
Please reply with the bare figure in µM and do not write the unit itself.

{"compound": "O=C(NCc1ccc(F)cc1F)c1cn2c(c(O)c1=O)C(=O)N1CC/C=C\\C[C@H]2C1", "measured-metric": "CC50 at 5 days", "unit-abbreviation": "µM", "reported-value": 15.1}

Now look at this entry.
Q) Supply reported CC50 at 5 days belonging to this compound: C[C@]12CN(CCc3cc(F)c(F)cc31)C(=O)c1c(O)c(=O)c(C(=O)NCc3c(F)cc(F)cc3F)cn12 (single isomer, unassigned)
A) 11.1

---

Experiment: Cytotoxicity assay in MT-4 cells
Format: cell-based, human
Details: human, uninfected MT-4 cells, 5 days incubation; read-out: CC50
measured-metric: CC50 at 5 days

{"compound": "COC1CCCN2C[C@H]1n1cc(C(=O)NCc3c(F)cc(F)cc3F)c(=O)c(O)c1C2=O (stereo partly shown)", "CC50 at 5 days": "> 23.4 µM"}
{"compound": "O=C(NCc1c(F)cc(F)cc1F)c1cn2c(c(O)c1=O)C(=O)N1CCOC[C@@H]2C1", "CC50 at 5 days": "> 50 µM"}
{"compound": "Cn1ncc2c1C[C@H]1CN(C2)C(=O)c2c(O)c(=O)c(C(=O)NCc3c(F)cc(F)cc3F)cn21", "CC50 at 5 days": "> 50 µM"}

Q) Supply reported CC50 at 5 days belonging to this compound: C[C@@]1(O)CCN2C[C@H](C1)n1cc(C(=O)NCc3c(F)cc(F)cc3F)c(=O)c(O)c1C2=O
A) > 50 µM

---

Assay: Cytotoxicity assay in MT-4 cells
Type: cell-based, human
Settings: human, uninfected MT-4 cells, 5 days incubation; read-out: CC50
Overview of reported CC50 at 5 days across a group of molecules:

The cases that follow already have their CC50 at 5 days on record.
{"molecule": "O=C(NCc1c(F)cc(F)cc1F)c1cn2c(c(O)c1=O)C(=O)N1C[C@@H]2CCc2c(Cl)cccc21", "CC50 at 5 days": "6.9 µM"}
{"molecule": "O=C(NCc1c(F)cc(F)cc1F)c1cn2c(c(O)c1=O)C(=O)N1CCC=C(F)[C@@H]2C1 (single isomer, unassigned)", "CC50 at 5 days": "15.1 µM"}
{"molecule": "O=C(NCc1c(F)cc(F)cc1F)c1cn2c(c(O)c1=O)C(=O)N1CCCC(CF)C2C1 (single isomer, unassigned)", "CC50 at 5 days": "10.8 µM"}

Now look at this entry.
Q) Supply reported CC50 at 5 days belonging to this molecule: O=C(NCc1c(F)cc(F)cc1F)c1cn2c(c(O)c1=O)C(=O)N1CCC[C@H](O)C[C@H]2C1
A) > 50 µM

Values compiled from patent US12227520B2.
